For each entry below, report its TGI value.
system: CAKI-1 renal; experiment: NCI tumour cell line growth inhibition, 48 h

Request: Kindly indicate its recorded TGI. Item: O=C(c1ccco1)N(C(=S)N1CCN(c2ccccn2)CC1)C1CCCCC1
Result: > 100 µM

Request: Kindly indicate its recorded TGI. Item: CC1=CC(=O)C(=O)C2=C1OC1(C2)C(C)CCC2C3(C)CCC(O)C(C)(C)C3CCC21C (stereo unspecified)
Result: 33.8 µM

Request: Kindly indicate its recorded TGI. Item: Cc1cccc2[s+]snc12
Result: > 100 µM

Request: Kindly indicate its recorded TGI. Item: O=C(O)C1Cc2c([nH]c3ccccc23)C=N1 (stereo unspecified)
Result: > 100 µM

Request: Kindly indicate its recorded TGI. Item: COc1cc(C2c3cc4c(cc3OC(Nc3ccccc3)C2C)OCO4)cc(OC)c1OC (stereo unspecified)
Result: > 100 µM

Request: Kindly indicate its recorded TGI. Item: CCOC(=O)C(NC(=O)CC(C)C)(Nc1ccc(S(=O)(=O)Nc2nc(C)cc(C)n2)cc1)C(F)(F)F (stereo unspecified)
Result: > 100 µM

Request: Kindly indicate its recorded TGI. Item: O=C(CC12CC3CC(CC(C3)C1)C2)NCCOCCOCCOCCNC(=O)c1cc2c(o1)C(=O)c1ccccc1C2=O
Result: 5.74 µM

Request: Kindly indicate its recorded TGI. Item: C=C(C)CN(CC#N)CC(=C)C
Result: > 100 µM

Request: Kindly indicate its recorded TGI. Item: CCOC(=O)[C@@H]1ON2O[C@H](OC3CCCC3(c3ccccc3)c3ccccc3)C[C@H]3OC(=O)[C@@H]1C32 (stereo partly specified)
Result: 46 µM

Request: Kindly indicate its recorded TGI. Item: Cc1ccc(SCC(CF)OCn2cc(F)c(=O)[nH]c2=O)cc1 (stereo unspecified)
Result: > 100 µM

Request: Kindly indicate its recorded TGI. Item: NC(=O)c1ccc2c(-c3ccnc(NCCCO)n3)c(-c3ccc(F)cc3)nn2c1
Result: > 25 µM

====

test system: NCI-H23 lung; experiment: NCI tumour cell line growth inhibition, 48 h
For each entry below, report its TGI value.

Request: Kindly indicate its recorded TGI. Item: C(=NCc1ccccc1)c1ccccc1-c1ccccc1C=NCc1ccccc1
Result: > 10 µM

Request: Kindly indicate its recorded TGI. Item: COC(=O)C12C(=O)O[C@H](C)C1(O)C(C)C(=O)N2C (stereo partly drawn)
Result: > 100 µM

Request: Kindly indicate its recorded TGI. Item: O=c1oc2ccccc2c(O)c1C(c1ccc(/C=C/c2ccccc2)cc1)c1c(O)c2ccccc2oc1=O
Result: > 100 µM

====

system: HOP-92 NSCLC; assay: NCI tumour cell line growth inhibition, 48 h
For each entry below, report its TGI value.

Request: Kindly indicate its recorded TGI. Item: [N-]=[NH+]CC(=O)OC(COCc1ccccc1)COCc1ccccc1
Result: > 100 µM

Request: Kindly indicate its recorded TGI. Item: COc1ccc(NC(C)=O)cc1C1CCC(=O)N1 (stereo unspecified)
Result: > 100 µM

Request: Kindly indicate its recorded TGI. Item: CC1=NN(c2nc(N)nc(CSCc3nc(N)nc(N(C)C)n3)n2)C(C)(C)C1
Result: > 100 µM

Request: Kindly indicate its recorded TGI. Item: Fc1ccccc1-c1nn2c(C34CC5CC(CC(C5)C3)C4)nnc2s1
Result: > 100 µM

Request: Kindly indicate its recorded TGI. Item: CC12CCC(C(=O)N3CC=CCC3)(OC1=O)C2(C)C (stereo unspecified)
Result: > 100 µM

Request: Kindly indicate its recorded TGI. Item: CC1(C)CCCCCCC2OC2CCCCCC(C)(C)C1=O (stereo unspecified)
Result: > 81 µM

The values you see were collected from PubChem BioAssay (NCI).
